Assay: physchem
Conditions: methanol/water (95/5) v/v, 45 °C, organic solvent or mixture, thermodynamic from solid
Where a name gives a salt, the structure may show the parent alone.
Observation type: solubility at 1 h (mg/mL)
Unit mg/mL implied. Number only.

// Cc1cn(-c2cc(NC(=O)c3ccc(C)c(Nc4nccc(-c5cccnc5)n4)c3)cc(C(F)(F)F)c2)cn1 [Form A of the hydrochloride salt] : solubility at 1 h value = 61.1

* * *

Experiment: physchem
Conditions: methanol/water (95/5) v/v, 20 °C, organic solvent or mixture, thermodynamic from solid
Counter-ions that a name gives are not always drawn.
Observation type: solubility at 24 h

// Cc1cn(-c2cc(NC(=O)c3ccc(C)c(Nc4nccc(-c5cccnc5)n4)c3)cc(C(F)(F)F)c2)cn1 [Form A of the hydrochloride salt] : solubility at 24 h value = 13.1 mg/mL

* * *

Test: physchem
Conditions: methanol/water (99.5/0.5) v/v, 20 °C, organic solvent or mixture, thermodynamic from solid
Where a name gives a salt, the structure may show the parent alone.
Observation type: solubility at 10 min (mg/mL)
Unit mg/mL implied. Number only.

// Cc1cn(-c2cc(NC(=O)c3ccc(C)c(Nc4nccc(-c5cccnc5)n4)c3)cc(C(F)(F)F)c2)cn1 [Form A of the hydrochloride salt] : solubility at 10 min value = 33.7

* * *

Experiment: physchem
Details: methanol/water (95/5) v/v, -10 °C, organic solvent or mixture, thermodynamic from solid
Where a name gives a salt, the structure may show the parent alone.
Observation type: solubility at 10 min (mg/mL)
Unit mg/mL implied. Number only.

// Cc1cn(-c2cc(NC(=O)c3ccc(C)c(Nc4nccc(-c5cccnc5)n4)c3)cc(C(F)(F)F)c2)cn1 [Form A of the hydrochloride salt] : solubility at 10 min value = 12.3

* * *

Experiment: physchem
Conditions: methanol/water (95/5) v/v, 45 °C, organic solvent or mixture, thermodynamic from solid
Counter-ions that a name gives are not always drawn.
Observation type: solubility at 10 min (mg/mL)
Unit mg/mL implied. Number only.

// Cc1cn(-c2cc(NC(=O)c3ccc(C)c(Nc4nccc(-c5cccnc5)n4)c3)cc(C(F)(F)F)c2)cn1 [Form A of the hydrochloride salt] : solubility at 10 min value = 46.1

* * *

Test: physchem
Details: methanol/water (95/5) v/v, -10 °C, organic solvent or mixture, thermodynamic from solid
Where a name gives a salt, the structure may show the parent alone.
Observation type: solubility at 1 h (mg/mL)
Unit mg/mL implied. Number only.

// Cc1cn(-c2cc(NC(=O)c3ccc(C)c(Nc4nccc(-c5cccnc5)n4)c3)cc(C(F)(F)F)c2)cn1 [Form A of the hydrochloride salt] : solubility at 1 h value = 14.4

* * *

Assay: physchem
Details: methanol/water (99.5/0.5) v/v, 45 °C, organic solvent or mixture, thermodynamic from solid
Structures can show the parent of a compound that is named as a salt.
Observation type: solubility at 1 h (mg/mL)
Unit mg/mL implied. Number only.

// Cc1cn(-c2cc(NC(=O)c3ccc(C)c(Nc4nccc(-c5cccnc5)n4)c3)cc(C(F)(F)F)c2)cn1 [Form A of the hydrochloride salt] : solubility at 1 h value = 62.5

* * *

Test: physchem
Conditions: methanol/water (99.5/0.5) v/v, 20 °C, organic solvent or mixture, thermodynamic from solid
Where a name gives a salt, the structure may show the parent alone.
Observation type: solubility at 24 h (mg/mL)
Unit mg/mL implied. Number only.

// Cc1cn(-c2cc(NC(=O)c3ccc(C)c(Nc4nccc(-c5cccnc5)n4)c3)cc(C(F)(F)F)c2)cn1 [Form A of the hydrochloride salt] : solubility at 24 h value = 12.2

* * *

Test: physchem
Conditions: tetrahydrofuran/water (1:1), 25 °C, aqueous with cosolvent or surfactant or cyclodextrin, thermodynamic from solid
Observation type: Solubility (µg/mL)
Unit µg/mL implied. Number only.

// Cc1cn(-c2cc(NC(=O)c3ccc(C)c(Nc4nccc(-c5cccnc5)n4)c3)cc(C(F)(F)F)c2)cn1 [Form A of the free base] : Solubility value = 1780

* * *

Assay: physchem
Conditions: methanol/water (99.5/0.5) v/v, -10 °C, organic solvent or mixture, thermodynamic from solid
Counter-ions that a name gives are not always drawn.
Observation type: solubility at 24 h
Include the unit after the number when you answer.

// Cc1cn(-c2cc(NC(=O)c3ccc(C)c(Nc4nccc(-c5cccnc5)n4)c3)cc(C(F)(F)F)c2)cn1 [Form A of the hydrochloride salt] : solubility at 24 h value = 4960 µg/mL

* * *

Assay: physchem
Conditions: 0.01N HCl, 50 °C, simulated gastric fluid, thermodynamic from solid
Counter-ions that a name gives are not always drawn.
Observation type: solubility at 24 h (mg/mL)
Unit mg/mL implied. Number only.

// Cc1cn(-c2cc(NC(=O)c3ccc(C)c(Nc4nccc(-c5cccnc5)n4)c3)cc(C(F)(F)F)c2)cn1 [Form A of the hydrochloride salt] : solubility at 24 h value = 0.85

* * *

Assay: physchem
Details: water, 50 °C, thermodynamic from solid
Where a name gives a salt, the structure may show the parent alone.
Observation type: solubility at 24 h
Include the unit after the number when you answer.

// Cc1cn(-c2cc(NC(=O)c3ccc(C)c(Nc4nccc(-c5cccnc5)n4)c3)cc(C(F)(F)F)c2)cn1 [Form A of the hydrochloride salt] : solubility at 24 h value = 1030 µg/mL

* * *

Assay: physchem
Details: methanol/water (99.5/0.5) v/v, 45 °C, organic solvent or mixture, thermodynamic from solid
Structures can show the parent of a compound that is named as a salt.
Observation type: solubility at 24 h (mg/mL)
Unit mg/mL implied. Number only.

// Cc1cn(-c2cc(NC(=O)c3ccc(C)c(Nc4nccc(-c5cccnc5)n4)c3)cc(C(F)(F)F)c2)cn1 [Form A of the hydrochloride salt] : solubility at 24 h value = 41.9

* * *

Experiment: physchem
Conditions: methanol/water (99.5/0.5) v/v, 45 °C, organic solvent or mixture, thermodynamic from solid
Where a name gives a salt, the structure may show the parent alone.
Observation type: solubility at 10 min
Include the unit after the number when you answer.

// Cc1cn(-c2cc(NC(=O)c3ccc(C)c(Nc4nccc(-c5cccnc5)n4)c3)cc(C(F)(F)F)c2)cn1 [Form A of the hydrochloride salt] : solubility at 10 min value = 52.2 mg/mL

These measurements were taken from patent US8829015B2.
